Target: FGFR3 (UniProt P22607)
Sequence (P22607 whole entry, looked up): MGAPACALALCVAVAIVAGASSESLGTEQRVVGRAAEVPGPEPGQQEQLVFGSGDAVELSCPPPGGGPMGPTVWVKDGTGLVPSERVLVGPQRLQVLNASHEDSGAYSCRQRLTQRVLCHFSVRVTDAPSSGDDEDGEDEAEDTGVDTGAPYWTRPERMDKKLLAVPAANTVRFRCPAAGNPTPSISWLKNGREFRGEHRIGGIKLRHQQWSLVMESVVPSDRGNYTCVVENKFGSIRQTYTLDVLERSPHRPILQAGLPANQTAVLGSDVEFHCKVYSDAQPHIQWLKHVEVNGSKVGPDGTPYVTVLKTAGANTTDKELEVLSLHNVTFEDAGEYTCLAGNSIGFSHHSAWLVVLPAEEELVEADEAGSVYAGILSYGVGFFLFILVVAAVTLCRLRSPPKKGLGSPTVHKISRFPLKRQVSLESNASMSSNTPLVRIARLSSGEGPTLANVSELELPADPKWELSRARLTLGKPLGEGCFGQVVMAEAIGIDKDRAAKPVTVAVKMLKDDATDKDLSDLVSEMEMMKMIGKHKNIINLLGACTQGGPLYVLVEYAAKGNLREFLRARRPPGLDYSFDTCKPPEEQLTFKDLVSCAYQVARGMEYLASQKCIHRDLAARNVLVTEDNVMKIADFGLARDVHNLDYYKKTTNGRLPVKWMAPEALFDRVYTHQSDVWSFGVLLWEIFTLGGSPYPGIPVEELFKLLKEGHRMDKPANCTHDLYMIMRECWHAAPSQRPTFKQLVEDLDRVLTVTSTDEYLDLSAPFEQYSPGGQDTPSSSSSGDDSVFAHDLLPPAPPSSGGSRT
Experiment: phosphorylation enrichment, bacterial display (enrichment ratio); higher = better substrate or ligand; peptides without Tyr show the background

- MONOMER SEQUENCE: "ESLRPYDVMDV [KCNQ2_Y562]"
  phosphorylation enrichment: 0.665
- MONOMER SEQUENCE: "YIPSNYVAEDR [FRK_Y104]"
  phosphorylation enrichment: 0.72
- MONOMER SEQUENCE: "LAVGDYMRRQK [ATM_Y1915_V1913G]"
  phosphorylation enrichment: 0.411
- MONOMER SEQUENCE: "EDAHHYLCKEV [JAK2_Y382_A377E]"
  phosphorylation enrichment: 0.778
- MONOMER SEQUENCE: "SGETEYNPTEA [NBEAL2_Y2748]"
  phosphorylation enrichment: 0.82
- MONOMER SEQUENCE: "DDSNLYINVKL [MTHFD1_Y52]"
  phosphorylation enrichment: 0.994
- MONOMER SEQUENCE: "LAETSYVTVLE [MAGEA1_Y276_K278T]"
  phosphorylation enrichment: 1.31
- MONOMER SEQUENCE: "PRAEWYRDDLL [MYOM2_Y317_V321L]"
  phosphorylation enrichment: 0.626
- MONOMER SEQUENCE: "AAGGRYDGLVG [HARS1_Y363]"
  phosphorylation enrichment: 0.48
- MONOMER SEQUENCE: "SEDSEYYRAFE [CASQ2_Y178_K180R]"
  phosphorylation enrichment: 1.24
- MONOMER SEQUENCE: "GIVEDYRPRFF [ACVRL1_Y421_P424R_YF]"
  phosphorylation enrichment: 0.655
- MONOMER SEQUENCE: "ATATEYHTTSH [SLC4A1_Y46_D45E]"
  phosphorylation enrichment: 0.309
- MONOMER SEQUENCE: "EFQKKYSDADI [CKAP5_Y1860_K1857Q_YF]"
  phosphorylation enrichment: 0.544
- MONOMER SEQUENCE: "AKQVGCENAGT [PC_Y304_Y304C]"
  phosphorylation enrichment: 0.484

###

Listed below: SH2 binding enrichment values for each entry.
Target: c-Src SH2;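 also: peptide library displayed on the E. coli surface as eCPX fusions, selected cells deep-sequenced, score is each peptide's frequency after selection divided by its frequency in the input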
Assay: SH2 binding enrichment of the phosphorylated peptide, bacterial display (enrichment ratio); higher = better substrate or ligand; peptides without Tyr show the background
OBSERVED PROPERTY: SH2 binding enrichment

- MONOMER SEQUENCE: "KLPDAYERFIL [G6PD_Y437_L440F]"
  EXPERIMENTAL SYSTEM: "c-Src SH2"
  QUANTITATIVE RESULT: 1.1
- MONOMER SEQUENCE: "EQQRAYLEGTC [HLA-C_Y183_L180Q]"
  EXPERIMENTAL SYSTEM: "c-Src SH2"
  QUANTITATIVE RESULT: 0.69
- MONOMER SEQUENCE: "IHFAIYLLKYS [ARMC9_Y107]"
  EXPERIMENTAL SYSTEM: "c-Src SH2"
  QUANTITATIVE RESULT: 0.726
- MONOMER SEQUENCE: "PNRILYGDFRQ [MYH6_Y717]"
  EXPERIMENTAL SYSTEM: "c-Src SH2"
  QUANTITATIVE RESULT: 0.568
- MONOMER SEQUENCE: "ATATEYHTTSH [SLC4A1_Y46_D45E]"
  EXPERIMENTAL SYSTEM: "c-Src SH2"
  QUANTITATIVE RESULT: 0.548
- MONOMER SEQUENCE: "WHHTFYNELRV [ACTA1_Y93]"
  EXPERIMENTAL SYSTEM: "c-Src SH2"
  QUANTITATIVE RESULT: 1.9
- MONOMER SEQUENCE: "LEKISYVFMKR [SSX7_Y48_YF]"
  EXPERIMENTAL SYSTEM: "c-Src SH2"
  QUANTITATIVE RESULT: 0.432
- MONOMER SEQUENCE: "IAAEYYDNLPH [DEGS1_Y284]"
  EXPERIMENTAL SYSTEM: "c-Src SH2"
  QUANTITATIVE RESULT: 1.13
- MONOMER SEQUENCE: "TLERHYKELQA [SPTBN2_Y834_E835K]"
  EXPERIMENTAL SYSTEM: "c-Src SH2"
  QUANTITATIVE RESULT: 0.493
- MONOMER SEQUENCE: "YTGDIYSSSNL [LZTR1_Y141_N143S]"
  EXPERIMENTAL SYSTEM: "c-Src SH2"
  QUANTITATIVE RESULT: 0.592
- MONOMER SEQUENCE: "DFPIGYPSFLA [TBCK_Y153_YF]"
  EXPERIMENTAL SYSTEM: "c-Src SH2"
  QUANTITATIVE RESULT: 0.364
- MONOMER SEQUENCE: "HHLSTYTKMLF [CHST8_Y251_R247H]"
  EXPERIMENTAL SYSTEM: "c-Src SH2"
  QUANTITATIVE RESULT: 2.54
- MONOMER SEQUENCE: "LPQDGYRIVQH [PTPRT_Y1329_R1324L]"
  EXPERIMENTAL SYSTEM: "c-Src SH2"
  QUANTITATIVE RESULT: 0.44
- MONOMER SEQUENCE: "KLADVYQAELR [GFAP_Y116]"
  EXPERIMENTAL SYSTEM: "c-Src SH2"
  QUANTITATIVE RESULT: 0.486
